- targetOfAssay: Coronary A2-Adenosine Receptor (Canis lupus familiaris, UniProt P11617)
- Construct: The assay of coronary vasoactivity in the anesthetized, open-chest dog; from tissue; host or cells: coronary vessels in situ, anesthetized open-chest dog
- Sequence (P11617 whole entry): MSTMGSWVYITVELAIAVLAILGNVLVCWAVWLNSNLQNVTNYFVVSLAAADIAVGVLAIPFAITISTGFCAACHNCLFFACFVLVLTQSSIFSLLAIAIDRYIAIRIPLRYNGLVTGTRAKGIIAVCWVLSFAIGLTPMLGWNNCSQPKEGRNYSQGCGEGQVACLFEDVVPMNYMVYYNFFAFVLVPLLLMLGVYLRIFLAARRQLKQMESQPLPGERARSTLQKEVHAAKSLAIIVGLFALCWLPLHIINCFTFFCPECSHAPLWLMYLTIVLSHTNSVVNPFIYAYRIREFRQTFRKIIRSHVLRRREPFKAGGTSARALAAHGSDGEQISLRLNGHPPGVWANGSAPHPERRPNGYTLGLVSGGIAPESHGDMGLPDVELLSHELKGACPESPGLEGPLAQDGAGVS
- assayRemarks: Coronary vasoactivity in the anesthetized, open-chest dog (intracoronary infusion; MPR from EC50)
- Assay type: in vivo
- experimentalContext: molar potency ratio relative to N6-methyladenosine (set equal to 1.0); coronary, dog
measureName: A2 Receptor MPR Relative to MeAdo

A: NNC(=O)Cc1ccc(NC(=O)Cc2ccc(Nc3ncnc4c3ncn4[C@@H]3O[C@H](CO)[C@@H](O)[C@H]3O)cc2)cc1
B: Cc1ccc(NC(=O)Cc2ccc(Nc3ncnc4c3ncn4[C@@H]3O[C@H](CO)[C@@H](O)[C@H]3O)cc2)cc1
C: Cc1ccc(Nc2ncnc3c2ncn3[C@@H]2O[C@H](CO)[C@@H](O)[C@H]2O)cc1 [Compound 7, N^6 -p-tolyladenosine, reference compound]
Task: Write the entries in order, lowest recorded A2 Receptor MPR Relative to MeAdo first. Ranked list of labels, please, in the requested order.
Result: C, B, A
(C: 27, B: 42, A: 70)
